FYI, the data here is from paper PMC9482650.

study target: T1, LRRC7, Q96NW7
T1 sequence (Q96NW7 1440-1537, limits assumed, looked up): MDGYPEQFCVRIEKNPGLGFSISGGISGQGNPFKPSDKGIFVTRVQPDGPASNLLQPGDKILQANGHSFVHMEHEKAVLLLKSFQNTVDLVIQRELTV
test details: holdup assay
Design: key: below the threshold = too weak to quantify, mostly under pKd 3.1 to 4
measurement setup: plain residues with an end cap or a label only (N-terminal biotin on a linker: ttds)
outcome measure: pKd

Some entries whose results are on file:
binder | pKd
RLPKIKETTV [FRMPD4, Q14CM0] | 3.58
PRVKPQRSKV [PPP1R13L, Q8WUF5] | below the threshold
PVRVCEETSL [OTULIN, Q96BN8] | below the threshold
EVVHTPETSV [SLC16A3, O15427] | below the threshold
SKPTRRETEV [HPV35-E6, P27228] | 3.59
FHPLGADSQV [SLC2A1, P11166] | below the threshold

Prompt: Recall and state the measured pKd for SSLQSLETSV [ATP2B4, P23634] .
Response: below the threshold

Prompt: Recall and state the measured pKd for NDPAWDETNL [ARHGEF7, Q14155] .
Response: 3.49

Prompt: Recall and state the measured pKd for KKYVDAETSL [SLC4A7, Q9Y6M7] .
Response: below the threshold

Prompt: Recall and state the measured pKd for RPLPRKVSQL [DOCK4, Q8N1I0] .
Response: below the threshold

Prompt: Recall and state the measured pKd for DKDPHSETAL [TMIGD1, Q6UXZ0] .
Response: below the threshold

Prompt: Recall and state the measured pKd for VDFPPKESSL [ACVR2A, P27037] .
Response: below the threshold

Prompt: Recall and state the measured pKd for QRQARSETLV [HPV59-E6, Q81964] .
Response: below the threshold

Prompt: Recall and state the measured pKd for EMDRRPATVV [PLCB4, Q15147] .
Response: below the threshold

Prompt: Recall and state the measured pKd for RLQRRRETQV [HPV18-E6, P06463] .
Response: 3.14

Prompt: Recall and state the measured pKd for RHTTSTETAV [HPV30-E6, P36809] .
Response: below the threshold

Prompt: Recall and state the measured pKd for SGSRPSATVV [HPV73-E6, Q82005] .
Response: 3.54
